From: patent US20230322789A1

- Test system: Human Jurkat-E6-1 cells
- measurement_protocol: Measurement of IL-2 secretion of Jurkat cells by ELISA
- Format: cell-based
- cond: Homo sapiens, Jurkat E6.1; test compound 3.0 μM; anti-CD3/anti-CD28 stimulation 24 hours; read-out: Percentage of the amount of IL-2 secreted from compound treated/DMSO-treated cells
- Description: 2. Measurement of IL-2 Secretion of Jurkat Cells by ELISA Human Jurkat-E6-1 cells were incubated with various concentrations of test compounds for 30 minutes in a humidified incubator at 37° C. and 500 C02. […] The best standard curve was selected by the microplate reader application software, and the corresponding concentration was calculated according to the GD value of the standard. Results are expressed as a percentage of the amount of IL-2 secreted from compound-treated/DMSO-treated cells.
Known activity at 3 µM of a selection of compounds
quantity: activity at 3 µM (%)

COc1cccc(F)c1-n1nc2c(-c3ccc(N4CCC(C)(N)CC4)cc3)n[nH]c2cc1=O [Compound 146] : 537
CCS(=O)(=O)N1CCN(c2ccc(-c3n[nH]c4cc(=O)n(-c5c(C)cccc5F)nc34)cn2)CC1 [Compound 105] : 623
COc1cccc(C)c1-n1nc2c(-c3ccc(N4CCN(C)CC4)cc3)n[nH]c2cc1=O [Compound 2] : 238
Cc1cc(-c2n[nH]c3cc(=O)n(-c4c(C)cccc4F)nc23)cc(C)c1N1CCN(C)CC1 [Compound 13] : 315
